Tested on: Trypanosoma cruzi amastigotes (Tulahuen strain expressing Lac-Z) cultured in 3T3 fibroblast cells
Test: microbe, parasite or virus in culture
Assay type: cell-based
Conditions: Trypanosoma cruzi, TULAHUEN, Fibroblast, T. cruzi amastigotes in 3T3 fibroblast cells; read-out: T cruzi EC50
Parameter EC50: see the listing below.

| MOLECULE | DISPLAY UNIT | RELATION QUALIFIER | EC50 |
| --- | --- | --- | --- |
| Cc1nc(C)c(C(=O)Nc2ccc(F)c(-c3cn4cc(-c5ccc(F)nc5)cnc4n3)c2)o1 | µM | = | 0.05 |
| O=C(Nc1ccc(F)c(-c2cn3cc(C4CC4)cnc3n2)c1)N1CC(F)(F)C1 | µM | = | 0.046 |
| Cc1nc(C)c(C(=O)Nc2ccc(F)c(-c3cn4cc(-c5cccnc5)cnc4n3)c2)o1 | µM | = | 0.153 |
| Cc1nc(C)c(C(=O)Nc2ccc(F)c(-c3cn4cc(C#CCCN5CCOCC5)cnc4n3)c2)o1 | µM | = | 4.01 |
| O=C(Nc1ccc(F)c(-c2cn3cc(NC4CCOCC4)cnc3n2)c1)N1CCCC1 | µM | = | 9.16 |
| Cc1nc(C)c(C(=O)Nc2ccc(F)c(-c3cn4cc(NC5=NCC(C)(C)N5)cnc4n3)c2)o1 | µM | > | 20 |
| Cc1nc(C)c(C(=O)Nc2ccc(F)c(-c3cn4cc(C5CCN(C(=O)OC(C)(C)C)CC5)cnc4n3)c2)o1 | µM | = | 0.05 |
| Cc1nc(C)c(C(=O)Nc2ccc(F)c(-c3cn4cc(N5C[C@@H](C)O[C@@H](C)C5)cnc4n3)c2)o1 | µM | = | 0.296 |
| Cc1ncc(C(=O)Nc2ccc(F)c(-c3cn4cc(-c5cccnc5)cnc4n3)c2)o1 | µM | = | 0.572 |
| Cc1nc(C)c(C(=O)Nc2ccc(F)c(-c3cn4cc(C5CCNCC5)cnc4n3)c2)o1 | µM | = | 0.447 |

* * *

System: Trypanosoma brucei Lister 427 strain, bloodstream form
Experiment: Assay for proliferation of kinetoplastid parasite Trypanosoma brucei (Cell Titer Glo, 48 hours)
Type: cell-based
Settings: Trypanosoma brucei, T. brucei Lister 427 bloodstream form; read-out: T. brucei EC50
PROPERTY: EC50 (nM)

| MOLECULE | RELATION QUALIFIER | READOUT VALUE |
| --- | --- | --- |
| Cc1nc(C)c(C(=O)Nc2ccc(F)c(-c3cn4cc(NC(=O)OCCCCl)cnc4n3)c2)o1 | = | 366 |
| Cc1nc(C)c(C(=O)Nc2ccc(F)c(-c3cn4cc(-c5cncc(F)c5)cnc4n3)c2)o1 | = | 34 |
| CC(C)Nc1cnc2nc(-c3cc(NC(=O)N4CC[C@@H](F)C4)ccc3F)cn2c1 | = | 55 |
| Cc1nc(C)c(C(=O)Nc2ccc(F)c(-c3cn4cc(C#CCCN5CCOCC5)cnc4n3)c2)o1 | > | 50000 |
| O=C(Nc1cnc2nc(-c3cc(NC(=O)N4CCCC4)ccc3F)cn2c1)OCc1ccccc1 | = | 76 |
| Cc1nc(C)c(C(=O)Nc2ccc(F)c(-c3cn4cc(-c5cnccc5C)cnc4n3)c2)o1 | = | 55 |
| CN(C)c1cnc2nc(-c3cc(NC(=O)N4CC(F)(F)C4)ccc3F)cn2c1 | = | 44 |
| Cc1nc(C)c(C(=O)Nc2ccc(F)c(-c3cn4cc(C5CCN(C(=O)CO)CC5)cnc4n3)c2)o1 | = | 467 |

Values compiled from patent US20160045505A1.
